Entry source: patent US9662327B2

pIC50 values by entry
Target: IDH1 R132H (Homo sapiens (Human), UniProt O75874, R132H)
Sequence (O75874 whole entry R132H): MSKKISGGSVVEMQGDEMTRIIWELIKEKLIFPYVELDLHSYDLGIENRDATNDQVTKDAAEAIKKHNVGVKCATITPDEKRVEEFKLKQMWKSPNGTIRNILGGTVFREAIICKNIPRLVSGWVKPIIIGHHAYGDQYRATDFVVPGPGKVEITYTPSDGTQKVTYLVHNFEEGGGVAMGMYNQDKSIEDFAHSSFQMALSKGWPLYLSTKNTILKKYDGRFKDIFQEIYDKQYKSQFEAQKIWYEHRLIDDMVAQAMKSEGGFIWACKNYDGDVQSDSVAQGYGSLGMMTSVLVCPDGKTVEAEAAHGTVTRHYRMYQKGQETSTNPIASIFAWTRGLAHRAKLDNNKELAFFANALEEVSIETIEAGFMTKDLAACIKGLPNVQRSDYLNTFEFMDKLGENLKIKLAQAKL
Assay: Assays for IDH1 R132H Inhibitors (NADPH/aKG, resazurin detection)
Format: biochemical
Settings: IDH1 R132H enzyme, Table 2; read-out: IDHR132H Activity
pIC50: −log10 of the molar value.

Field: example entries. Status: answers known.
| compound | pIC50 |
| --- | --- |
| CC(C)[C@@H]1CN(c2nc(C3CC3)c3c(c2C#N)CC(C)(C)OC3)CCN1C(=O)CC(=O)O [Compound 418] | 5.00 to 6.00 |
| C[C@@H]1CN(c2nc(C3CCCCC3)c3c(c2C#N)CCOC3)CCN1C(=O)Nc1ccccc1F [Compound 300] | 5.00 to 6.00 |
| CC(C)c1nc(N2CCN(S(=O)(=O)c3cccs3)[C@H](C)C2)c(C#N)c2c1COC(C)(C)C2 [Compound 170] | 5.00 to 6.00 |
| CCOC(=O)[C@H]1CN(c2nc(C(C)C)c3c(c2C#N)CC(C)(C)OC3)CCN1C(=O)c1ccoc1 [Compound 410] | 6.00 to 6.30 |
| C=CCNC(=O)N1CCN(c2nc(C3CCCCC3)c3c(c2C#N)CCOC3)C[C@H]1C [Compound 334] | 5.00 to 6.00 |
| CC(C)c1nc(N2CCN(C(=O)c3ccco3)[C@@H](c3ccccc3)C2)c(C#N)c2c1COC(C)(C)C2 [Compound 223] | 6.00 to 6.30 |
| C[C@@H]1CN(c2nc(C3CCCCC3)c3c(c2C#N)CCOC3)CCN1C(=O)C1CC1 [Compound 375] | 5.00 to 6.00 |
| Cc1cnn(CC(=O)N2CCN(c3nc(C4CC4)c4c(c3C#N)CC(C)(C)OC4)C[C@H]2C(C)C)c1 [Compound 401] | > 6.30 |

Bench note: what pIC50 did CC(C)[C@@H]1CN(c2nc(C3CCCCC3)c3c(c2C#N)CCOC3)CCN1C(=O)c1ccoc1 [Compound 183] show?
5.00 to 6.00

Bench note: what pIC50 did COC(=O)C1CN(c2nc(C3CC3)c3c(c2C#N)CC(C)(C)OC3)CCN1C(=O)c1ccoc1 (stereo not drawn) [Compound 387] show?
6.00 to 6.30

Bench note: what pIC50 did CC(C)[C@@H]1CN(c2nc(C3CC3)c3c(c2C#N)CC(C)(C)OC3)CCN1C(=O)C1CC1 [Compound 376] show?
> 6.30

Bench note: what pIC50 did CC(C)c1nc(N2CCN(C(=O)c3cnc4ccccn34)[C@H](C)C2)c(C#N)c2c1COC(C)(C)C2 [Compound 222] show?
5.00 to 6.00

Bench note: what pIC50 did CC(C)[C@@H]1CN(c2nc(C3CC3)c3c(c2C#N)CC(C)(C)OC3)CCN1C(=O)OCCO [Compound 368] show?
6.00 to 6.30

Bench note: what pIC50 did Cc1occc1C(=O)N1CCN(c2nc(C3CCCCC3)c3c(c2C#N)CCOC3)C[C@H]1C [Compound 184] show?
5.00 to 6.00

Bench note: what pIC50 did CC(C)c1nc(N2CCN(C(=O)c3ccco3)C[C@@H]2C)c(C#N)c2c1COC(C)(C)C2 [Compound 202] show?
5.00 to 6.00

---

Target: IDH1 R132H (Homo sapiens (Human), UniProt O75874, R132H)
Assay: Assays for IDH1 R132H Inhibitors (NADPH/aKG, resazurin detection)
Format: biochemical
Conditions: IDH1 R132H enzyme, Table 2; read-out: IDHR132H Activity
Description: Assays were conducted in a volume of […] assay buffer (150 mM NaCl, 10 mM MgCl2, 20 mM Tris pH 7.5, 0.03% bovine serum albumin) as follows in a standard 384-well plate: To 25 ul of substrate mix (8 uM NADPH, 2 mM aKG), 1 μl of test compound was added in DMSO. […] The reaction was incubated for 50 minutes at room temperature, then 25 μl of detection mix (30 μM resazurin, […]) was added and the mixture further incubated for 5 minutes at room temperature.
IC50 values by entry

Field: example entries. Status: answers known.
| compound | measurement name | val |
| --- | --- | --- |
| CC(C)c1nc(N2CCN(C(=O)C3CCOC3)[C@H](C)C2)c(C#N)c2c1COC(C)(C)C2 (stereo partly shown) | IC50 | 1 to 10 µM |
| CCOC(=O)C1CN(c2nc(C3CCCCC3)c3c(c2C#N)CCOC3)CCN1C(=O)c1ccco1 (stereo not shown) | IC50 | 1 to 10 µM |
| CC(C)c1nc(N2CCN(C(=O)c3ccoc3)[C@H](C(C)C)C2)c(C#N)c2c1COC(C)(C)C2 | IC50 | < 0.5 µM |
| CC1(C)Cc2c(C#N)c(N3CCN(C(=O)c4ccco4)CC3)nc(C3CCCCC3)c2CO1 | IC50 | 1 to 10 µM |
| CC(C)c1nc(N2CCN(C(=O)Cc3ccccn3)[C@H](C)C2)c(C#N)c2c1COC(C)(C)C2 | IC50 | 1 to 10 µM |
| CC(C)[C@@H]1CN(c2nc(C3CC3)c3c(c2C#N)CC(C)(C)OC3)CCN1C(=O)Cn1ncc2ccccc21 | IC50 | 1 to 10 µM |

Bench note: what IC50 did `CC[C@@H]1CN(c2nc(C3CC3)c3c(c2C#N)CC(C)(C)OC3)CCN1C(=O)Cc1ccccc1OC` show?
0.5 to 1 µM
